These data points were gathered from paper PMC12678798.

target entity: UniProt:Q99571
Sequence (Q99571 1-388): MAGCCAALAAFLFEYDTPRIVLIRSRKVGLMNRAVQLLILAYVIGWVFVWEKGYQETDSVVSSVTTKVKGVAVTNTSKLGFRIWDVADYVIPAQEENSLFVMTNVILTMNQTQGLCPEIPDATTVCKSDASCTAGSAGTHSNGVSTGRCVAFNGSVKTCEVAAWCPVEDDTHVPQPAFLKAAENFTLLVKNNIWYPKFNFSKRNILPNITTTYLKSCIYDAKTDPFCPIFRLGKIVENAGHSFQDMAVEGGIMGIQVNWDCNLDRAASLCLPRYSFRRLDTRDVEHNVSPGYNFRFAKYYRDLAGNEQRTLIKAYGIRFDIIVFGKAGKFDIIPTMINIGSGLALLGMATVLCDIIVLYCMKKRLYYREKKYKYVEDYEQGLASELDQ
test protocol: ATP-induced calcium influx assay, human wt P2X4 receptor in 1321N1 astrocytoma cells
conditions: wt hP2X4; calcium influx
property: EC50 (µM)
# number only, unit µM dropped from output

Item Nc1ncnc2c1ncn2[C@@H]1O[C@H](COP(=O)(O)OP(=O)(O)OP(=O)(O)O)[C@@H](O)[C@H]1O [ATP, Adenosine 5′-triphosphate] has what recorded EC50? 0.357
